target_system: isolated recombinant JAK1 kinase domain (Homo sapiens)
Construct: The activity of the isolated recombinant JAK1 and JAK2 kinase domain was measured
Sequence (P23458 875-1153 limits assumed): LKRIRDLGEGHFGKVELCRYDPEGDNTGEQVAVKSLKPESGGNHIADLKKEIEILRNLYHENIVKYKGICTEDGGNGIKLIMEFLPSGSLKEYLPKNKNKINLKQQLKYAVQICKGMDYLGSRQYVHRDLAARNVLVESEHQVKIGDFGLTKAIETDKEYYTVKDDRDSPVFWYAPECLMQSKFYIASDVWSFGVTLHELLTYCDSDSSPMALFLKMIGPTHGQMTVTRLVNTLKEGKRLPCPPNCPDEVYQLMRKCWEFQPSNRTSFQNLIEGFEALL
method_description: JAK1 enzyme assay (Caliper LabChip, Ki)
Format: biochemical
recorded_conditions: recombinant JAK1 kinase domain, 25 μM ATP
We begin with a simple list: items and their reported pKi.
As a rule, pKi stands for the negative log10 of the concentration, concentration in M.

Prompt line: Param item = CSc1ccc(OC(F)F)c(-c2nn(CC(=O)N3CCN(CC4CCOCC4)CC3)cc2NC(=O)c2cnn3cccnc23)c1 ; retrieve measured pKi.
Response line: 9.39

Prompt line: Param item = CN(C)C(=O)CN1CCN(CC2CCN(C(=O)Cn3cc(NC(=O)c4cnn5cccnc45)c(-c4cc(SC5CC5)ccc4OC(F)F)n3)CC2)CC1 ; retrieve measured pKi.
Response line: 9.41

Prompt line: Param item = CSc1ccc(OC(F)F)c(-c2nn([C@H]3CCCN(C)C3)cc2NC(=O)c2cnn3cccnc23)c1 ; retrieve measured pKi.
Response line: 9.39

Prompt line: Param item = C[S+]([O-])c1ccc(OC(F)F)c(-c2n[nH]cc2NC(=O)c2cnn3cccnc23)c1 (stereo not shown) ; retrieve measured pKi.
Response line: 8.77

---

target_system: isolated recombinant JAK1 kinase domain (Homo sapiens)
Construct: The activity of the isolated recombinant JAK1 and JAK2 kinase domain was measured
method_description: JAK1 enzyme assay (Caliper LabChip, Ki)
Type: biochemical
recorded_conditions: recombinant JAK1 kinase domain, 25 μM ATP
Procedure: JAK Enzyme Assays were Carried Out as Follows: The activity of the isolated recombinant JAK1 and JAK2 kinase domain was measured by monitoring phosphorylation of a peptide derived from JAK3 (Val-Ala-Leu-Val-Asp-Gly-Tyr-Phe-Arg-Leu-Thr-Thr, fluorescently labeled on the N-terminus with 5-carboxyfluorescein) using the Caliper LabChip® technology (Caliper Life Sciences, Hopkinton, Mass.). […]
We begin with a simple list: items and their reported pKi.
As a rule, pKi stands for the negative log10 of the concentration, concentration in M.

Prompt line: Param item = CSc1ccc(OC(F)F)c(-c2nn(CC(=O)N3CCC(N4CCC(C#N)CC4)CC3)cc2NC(=O)c2cnn3cccnc23)c1 [Example 18] ; retrieve measured pKi.
Response line: 9.62

Prompt line: Param item = CSc1ccc(OC(F)F)c(-c2nn(Cc3cn(C4CCN(C5CCOCC5)CC4)nn3)cc2NC(=O)c2cnn3cccnc23)c1 [Example 81] ; retrieve measured pKi.
Response line: 9.46

---

We begin with a simple list: items and their reported IC50.
target_system: LRRK2 (Homo sapiens, UniProt Q5S007)
Sequence (Q5S007 970-2527 limits assumed): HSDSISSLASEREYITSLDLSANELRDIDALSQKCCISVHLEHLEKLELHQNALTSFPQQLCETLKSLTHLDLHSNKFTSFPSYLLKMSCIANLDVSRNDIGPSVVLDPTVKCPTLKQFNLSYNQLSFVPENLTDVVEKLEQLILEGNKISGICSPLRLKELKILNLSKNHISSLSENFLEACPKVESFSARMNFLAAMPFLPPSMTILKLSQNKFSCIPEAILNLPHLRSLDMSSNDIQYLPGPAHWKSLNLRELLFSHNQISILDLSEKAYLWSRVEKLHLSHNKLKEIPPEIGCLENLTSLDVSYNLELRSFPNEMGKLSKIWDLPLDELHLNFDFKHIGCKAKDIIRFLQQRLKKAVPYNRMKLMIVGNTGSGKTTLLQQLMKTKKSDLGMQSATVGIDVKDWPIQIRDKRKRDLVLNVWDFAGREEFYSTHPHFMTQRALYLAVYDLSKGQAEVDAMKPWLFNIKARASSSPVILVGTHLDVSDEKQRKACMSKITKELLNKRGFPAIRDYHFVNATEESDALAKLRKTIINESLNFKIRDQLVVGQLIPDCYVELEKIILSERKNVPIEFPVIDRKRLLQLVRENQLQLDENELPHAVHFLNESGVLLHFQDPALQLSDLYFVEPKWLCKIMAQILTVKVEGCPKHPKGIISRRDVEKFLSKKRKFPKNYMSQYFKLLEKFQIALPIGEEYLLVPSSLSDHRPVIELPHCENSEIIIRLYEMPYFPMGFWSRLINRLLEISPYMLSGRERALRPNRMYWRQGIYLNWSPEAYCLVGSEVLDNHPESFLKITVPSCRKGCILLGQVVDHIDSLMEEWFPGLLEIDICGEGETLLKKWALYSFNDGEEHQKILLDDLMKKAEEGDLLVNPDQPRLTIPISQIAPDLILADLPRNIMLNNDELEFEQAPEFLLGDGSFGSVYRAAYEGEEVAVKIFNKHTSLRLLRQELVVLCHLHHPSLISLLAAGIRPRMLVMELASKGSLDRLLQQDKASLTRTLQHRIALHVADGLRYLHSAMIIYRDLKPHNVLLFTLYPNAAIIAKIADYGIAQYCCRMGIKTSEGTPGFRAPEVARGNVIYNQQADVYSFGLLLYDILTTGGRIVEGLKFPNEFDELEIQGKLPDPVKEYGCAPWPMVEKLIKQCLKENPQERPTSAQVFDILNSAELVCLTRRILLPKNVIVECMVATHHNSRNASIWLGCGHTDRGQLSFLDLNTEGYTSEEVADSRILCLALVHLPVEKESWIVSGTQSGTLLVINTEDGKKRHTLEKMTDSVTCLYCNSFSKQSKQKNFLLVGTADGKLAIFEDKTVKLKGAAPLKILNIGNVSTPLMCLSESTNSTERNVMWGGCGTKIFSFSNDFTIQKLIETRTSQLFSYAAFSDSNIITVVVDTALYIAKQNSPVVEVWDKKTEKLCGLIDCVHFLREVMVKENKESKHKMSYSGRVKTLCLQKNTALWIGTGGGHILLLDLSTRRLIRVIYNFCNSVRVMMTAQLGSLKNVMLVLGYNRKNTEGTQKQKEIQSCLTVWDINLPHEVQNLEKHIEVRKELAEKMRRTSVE
Output spec: scalar in µM, unitless text.

The examples below pair each entry with its known result.
Prompt line: Param item = CSc1ccc(OC(F)F)c(-c2nn(CC(=O)N3CCC(N4CCOCC4)CC3)cc2NC(=O)c2cnn3cccnc23)c1 ; retrieve measured IC50.
Response line: 1.85

Prompt line: Param item = COC(=O)N1CCN(CC2CCN(C(=O)Cn3cc(NC(=O)c4cnn5cccnc45)c(-c4cc(SC)ccc4OC(F)F)n3)CC2)CC1 ; retrieve measured IC50.
Response line: 2.45

Prompt line: Param item = CSc1ccc(OC(F)F)c(-c2nn(C)cc2NC(=O)c2cnn3cccnc23)c1 ; retrieve measured IC50.
Response line: 0.193

Prompt line: Param item = CC(C)(O)Cn1cc(NC(=O)c2cnn3cccnc23)c(-c2cc(Cl)ccc2OC(F)F)n1 [B, reference compound] ; retrieve measured IC50.
Response line: 0.431

Prompt line: Param item = Cn1cc(NC(=O)c2cnn3cccnc23)c(-c2cc(Cl)ccc2OC(F)F)n1 [A, reference compound] ; retrieve measured IC50.
Response line: 0.0809

Further cases:
Prompt line: Param item = O=C(Nc1cn(C2CCOCC2)nc1-c1cc(Cl)ccc1OC(F)F)c1cnn2cccnc12 [C, reference compound] ; retrieve measured IC50.
Response line: 1.03

Prompt line: Param item = CSc1ccc(OC(F)F)c(-c2nn(CC(=O)N3CCC(N4CCC[C@@H](C#N)C4)CC3)cc2NC(=O)c2cnn3cccnc23)c1 ; retrieve measured IC50.
Response line: 1.7

---

We begin with a simple list: items and their reported pKi.
target_system: isolated recombinant JAK2 kinase domain (Homo sapiens, UniProt O60674)
Construct: The activity of the isolated recombinant JAK1 and JAK2 kinase domain was measured
Sequence (O60674 849-1124 limits assumed): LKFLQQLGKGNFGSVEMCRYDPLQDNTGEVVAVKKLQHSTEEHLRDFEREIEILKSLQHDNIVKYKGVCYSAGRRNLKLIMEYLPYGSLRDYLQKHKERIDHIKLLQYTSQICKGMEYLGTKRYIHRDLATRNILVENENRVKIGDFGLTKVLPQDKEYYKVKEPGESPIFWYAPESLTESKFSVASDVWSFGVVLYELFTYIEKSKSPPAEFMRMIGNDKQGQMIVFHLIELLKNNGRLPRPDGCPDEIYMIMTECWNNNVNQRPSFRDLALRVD
method_description: JAK2 enzyme assay (Caliper LabChip, Ki)
recorded_conditions: 25 μM ATP
As a rule, pKi stands for the negative log10 of the concentration, concentration in M.

Prompt line: Lab note: need pKi with isolated recombinant JAK2 kinase domain (Homo sapiens, UniProt O60674) for entry CSc1ccc(OC(F)F)c(-c2nn(CC(=O)N3CCC(N(C)CC(C)(F)F)CC3)cc2NC(=O)c2cnn3cccnc23)c1 , please look it up.
Response line: 9.49

---

target_system: isolated recombinant JAK1 kinase domain (Homo sapiens)
Construct: The activity of the isolated recombinant JAK1 and JAK2 kinase domain was measured
method_description: JAK1 enzyme assay (Caliper LabChip, Ki)
Type: biochemical
recorded_conditions: recombinant JAK1 kinase domain, 25 μM ATP
Could you please mark y for values of Ki below 0.6 nM and n for values at or above it?

Prompt line: Below 0.6 nM on Ki? Entry CSc1ccc(OC(F)F)c(-c2nn(CC(=O)N3CC4CCCN(C)C4C3)cc2NC(=O)c2cnn3cccnc23)c1 (stereo not shown)
Response line: y

Further cases:
Prompt line: Below 0.6 nM on Ki? Entry CSc1ccc(OC(F)F)c(-c2nn(CC(=O)N3CCC(N4CCOCC4)CC3)cc2NC(=O)c2cnn3cccnc23)c1
Response line: y

Prompt line: Below 0.6 nM on Ki? Entry O=C(Nc1cn(CC(=O)N2CCN(CC3CCOCC3)CC2)nc1-c1cc(SC2COC2)ccc1OC(F)F)c1cnn2cccnc12
Response line: n

Prompt line: Below 0.6 nM on Ki? Entry O=C(Nc1cn(CCN[C@@H]2CCOC2)nc1-c1cc(SC2COC2)ccc1OC(F)F)c1cnn2cccnc12
Response line: n

Prompt line: Below 0.6 nM on Ki? Entry CSc1ccc(OC(F)F)c(-c2nn(CC(=O)N3CCC(N4CCn5cncc5C4)CC3)cc2NC(=O)c2cnn3cccnc23)c1
Response line: y

Prompt line: Below 0.6 nM on Ki? Entry CSc1ccc(OC(F)F)c(-c2nn(CC(=O)N3CCN(CCN4CCOCC4)CC3)cc2NC(=O)c2cnn3cccnc23)c1
Response line: y

Prompt line: Below 0.6 nM on Ki? Entry CC(F)(F)CNC1CCN(C(=O)Cn2cc(NC(=O)c3cnn4cccnc34)c(-c3cc(SC4COC4)ccc3OC(F)F)n2)CC1
Response line: n

---

target_system: isolated recombinant JAK1 kinase domain (Homo sapiens)
Construct: The activity of the isolated recombinant JAK1 and JAK2 kinase domain was measured
method_description: JAK1 enzyme assay (Caliper LabChip, Ki)
Type: biochemical
recorded_conditions: 25 μM ATP; Morrison tight binding model
readout_kind: Ki (nM)
Output spec: scalar in nM, unitless text.

Prompt line: Param item = Cn1cc(NC(=O)c2cnn3cccnc23)c(-c2cc(SC(CF)CF)ccc2OC(F)F)n1 ; retrieve measured Ki.
Response line: 0.16

Further cases:
Prompt line: Param item = Cn1cc(NC(=O)c2cnn3cccnc23)c(-c2cc(Cl)ccc2OC(F)F)n1 [A, reference compound] ; retrieve measured Ki.
Response line: 0.18

Prompt line: Param item = CSc1ccc(OC(F)F)c(-c2nn(CC(=O)N3CCC(N4CCC[C@@H](C#N)C4)CC3)cc2NC(=O)c2cnn3cccnc23)c1 ; retrieve measured Ki.
Response line: 0.2

Prompt line: Param item = CSc1ccc(OC(F)F)c(-c2nn(CC(=O)N3CCC(NCC(C)(C)C#N)CC3)cc2NC(=O)c2cnn3cccnc23)c1 ; retrieve measured Ki.
Response line: 0.2

Prompt line: Param item = CSc1ccc(OC(F)F)c(-c2nn(C3CCOCC3)cc2NC(=O)c2cnn3cccnc23)c1 ; retrieve measured Ki.
Response line: 0.67

Prompt line: Param item = O=C(Nc1cn(C2CCOCC2)nc1-c1cc(Cl)ccc1OC(F)F)c1cnn2cccnc12 [C, reference compound] ; retrieve measured Ki.
Response line: 0.69

Prompt line: Param item = COC(=O)N1CCN(CC2CCN(C(=O)Cn3cc(NC(=O)c4cnn5cccnc45)c(-c4cc(SC)ccc4OC(F)F)n3)CC2)CC1 ; retrieve measured Ki.
Response line: 0.3

---

We begin with a simple list: items and their reported Ki.
target_system: isolated recombinant JAK2 kinase domain (Homo sapiens)
Construct: The activity of the isolated recombinant JAK1 and JAK2 kinase domain was measured
method_description: JAK2 enzyme assay (Caliper LabChip, Ki)
recorded_conditions: 25 μM ATP
Output spec: scalar in nM, unitless text.

The examples below pair each entry with its known result.
Prompt line: Param item = CCSc1ccc(OC(F)F)c(-c2nn(CC(=O)N3CCC(N(C)CCC#N)CC3)cc2NC(=O)c2cnn3cccnc23)c1 [Example 194] ; retrieve measured Ki.
Response line: 0.63

Prompt line: Param item = O=C(Nc1cn(CC(=O)N2CCN(CC3CCOCC3)CC2)nc1-c1cc(SC2COC2)ccc1OC(F)F)c1cnn2cccnc12 [Example 188] ; retrieve measured Ki.
Response line: 1.3

Prompt line: Param item = CC(C)Sc1ccc(OC(F)F)c(-c2nn(CC(=O)N3CCC(NCC(C)(C)C#N)CC3)cc2NC(=O)c2cnn3cccnc23)c1 [Example 120] ; retrieve measured Ki.
Response line: 1.2

Prompt line: Param item = CSc1ccc(OC(F)F)c(-c2nn(CC(=O)N3CCN(CCCC#N)CC3)cc2NC(=O)c2cnn3cccnc23)c1 [Example 21] ; retrieve measured Ki.
Response line: 0.33

Prompt line: Param item = O=C(Nc1cn(CC(=O)N2CCN(CCN3CCOCC3)CC2)nc1-c1cc(SC2CC2)ccc1OC(F)F)c1cnn2cccnc12 [Example 163] ; retrieve measured Ki.
Response line: 0.94

Further cases:
Prompt line: Param item = CC(C)Sc1ccc(OC(F)F)c(-c2nn(CC(=O)N3CCC(C(=O)N4CCNCC4)CC3)cc2NC(=O)c2cnn3cccnc23)c1 [Example 151] ; retrieve measured Ki.
Response line: 2.3

Prompt line: Param item = CC(C)Sc1ccc(OC(F)F)c(-c2nn(CC(=O)N3CCC(N(C)CC4OCCO4)CC3)cc2NC(=O)c2cnn3cccnc23)c1 [Example 123] ; retrieve measured Ki.
Response line: 2

Prompt line: Param item = O=C(Nc1cn(CC(=O)N2CCN(C3CCOCC3)CC2)nc1-c1cc(SC2COC2)ccc1OC(F)F)c1cnn2cccnc12 [Example 184] ; retrieve measured Ki.
Response line: 1.1

Prompt line: Param item = CSc1ccc(OC(F)F)c(-c2nn(CC(=O)N3CCC(N(C)[C@@H]4CCOC4)CC3)cc2NC(=O)c2cnn3cccnc23)c1 [Example 60] ; retrieve measured Ki.
Response line: 0.52

Prompt line: Param item = CSc1ccc(OC(F)F)c(-c2nn(CC(=O)N3CCC(N4CCCOCC4)CC3)cc2NC(=O)c2cnn3cccnc23)c1 [Example 45] ; retrieve measured Ki.
Response line: 0.68

Source listed as patent US20180265515A1.
